Attribute: binding signal
Assayed System: OsWRKY34 (Oryza sativa, UniProt Q0JBA9 1-250)
Sequence (Q0JBA9 entry or part of it): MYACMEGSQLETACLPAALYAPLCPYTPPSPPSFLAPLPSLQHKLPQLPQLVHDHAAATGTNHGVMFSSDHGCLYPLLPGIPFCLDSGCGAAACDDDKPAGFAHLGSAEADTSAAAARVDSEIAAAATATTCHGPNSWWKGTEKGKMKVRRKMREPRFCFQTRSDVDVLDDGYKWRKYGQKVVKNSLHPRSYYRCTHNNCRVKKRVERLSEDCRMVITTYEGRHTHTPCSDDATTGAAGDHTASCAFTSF
Protocol: protein-binding microarray (RPBM); PBS, 2% BSA, 51.3 ng/ul salmon testes DNA, 50 uM zinc acetate, 200 nM TF, 25 C, 1 h; high values mean tight binding
Condition Summary: protein: recombinant; tags: N-terminal polyhistidine and DsRed monomer fusion (pET32a); label: CyDye5-dUTP incorporated in the synthesized complementary strand; 3' TTTTT single-stranded linker to array surface; dsDNA, one strand shown
Whole data set: some 68,000 sequences, median “fluorescence intensity (a.u.)” near 9,100, cut for the highest 2% near 16,000. For the sample, the highest values were picked, then their nearest neighbours and some sequences at random.

TACCCACACACACACAAGAACACGCGCCACATTTGTCATTCGGAGTCACCTAGTGCAG = 10900 fluorescence intensity (a.u.)
GCCCGCTGCTATTCTCTCTCATCTTTTATCCTATTAAAATCGGAGTCACCTAGTGCAG = 13200 fluorescence intensity (a.u.)
CGCTACCGGGTTGACTTTTTCCTATCCGTTTCTGGTCCGGCGGAGTCACCTAGTGCAG = 22800 fluorescence intensity (a.u.)
ACAACACGCCGCCTCGCCTGCCCATCCCGTCCAACCCACGCGGAGTCACCTAGTGCAG = 9200 fluorescence intensity (a.u.)
ATAATATATAATCAAACAAAAAAATGGACTATAATCTCTCCGGAGTCACCTAGTGCAG = 64400 fluorescence intensity (a.u.)

*Q* What binding signal value was documented for this sequence, TTTGGGCCGGGTTTTTGGTTTCTTCCTTTTTTTTTCTGGGCGGAGTCACCTAGTGCAG ?
*A* 12600 fluorescence intensity (a.u.)

*Q* # input sequence: GCCCGCTGCTCTGCTCTCTCATCTTTTATCTCACTAAAATCGGAGTCACCTAGTGCAG ; wanted: its binding signal
*A* 8960 fluorescence intensity (a.u.)

*Q* Which measured binding signal value corresponds to CTGTCTTCACCGTGCCGCTCCTTTCCTTCCATTTCATCTCCGGAGTCACCTAGTGCAG ?
*A* 8440 fluorescence intensity (a.u.)

*Q* Query (sequence): GGTTGCTCAGTTGCCGACACATTTCTGCAGACCCATTTTGCGGAGTCACCTAGTGCAG ; field requested: binding signal
*A* 8080 fluorescence intensity (a.u.)
